- assay.method.text: Trimetazidine nitrosamine formation in aqueous sodium nitrite solution (LC/MS dosage)
- Type: physicochemical
- details: 300 mg/mL in trimetazidine equivalent, stirred at 40° C. for 22 hours
Structures can show the parent of a compound that is named as a salt.
Rule: Trimetazidine nitrosamine content below 30 ppm gives Condition met, anything at or above gives Condition not met.

// below: answered molecules
molecule	label
COc1ccc(CN2CCNCC2)c(OC)c1OC [Comparative Example A, Trimetazidine dihydrochloride]	Condition not met
COc1ccc(CN2CCNCC2)c(OC)c1OC.O=C(O)C=CC(=O)O [Comparative Example G]	Condition not met
COc1ccc(CN2CCNCC2)c(OC)c1OC.Cl.Cl	Condition met
COc1ccc(CN2CCNCC2)c(OC)c1OC.O=C(O)C=CC(=O)O [Comparative Example F]	Condition not met

Pending molecule:
Strictly below 30 ppm in Trimetazidine nitrosamine content? COc1ccc(CN2CCNCC2)c(OC)c1OC.COc1ccc(CN2CCNCC2)c(OC)c1OC.O=C(O)CCCCC(=O)O [Example 1, Trimetazidine Hemiadipate]
Condition met
